Test system: A549
Test: Cytotoxicity against human A549 cells
Type: functional
Settings: read-out: ED50 (the source's name)
Result Type: pEC50
Schema: pEC50 number; meaning minus log10 of the concentration expressed in molar units.

# example entries with known answers
Smiles Input	Result Type	Reading
COc1cccc(/C=C/C(C)=O)c1OC(=O)[C@@]1(C)CC[C@]2(C)CC[C@]3(C)C(=CC(=O)[C@@H]4[C@@]5(C)CC[C@H](O)C(C)(C)[C@@H]5CC[C@]43C)[C@@H]2C1	pEC50	5.66
CC(=O)/C=C/c1cccc(F)c1OC(=O)[C@@]1(C)CC[C@]2(C)CC[C@]3(C)C(=CC(=O)[C@@H]4[C@@]5(C)CC[C@H](O)C(C)(C)[C@@H]5CC[C@]43C)[C@@H]2C1	pEC50	5.49

Here is another compound to look at.
The compound identified as `COc1cc(/C=C/C(C)=O)ccc1OC(=O)[C@@]1(C)CC[C@]2(C)CC[C@]3(C)C(=CC(=O)[C@@H]4[C@@]5(C)CC[C@H](O)C(C)(C)[C@@H]5CC[C@]43C)[C@@H]2C1` registered its pEC50 at 5.70

###

System: A549
Test: Cytotoxicity against human A549 cells
Assay type: functional
Conditions: read-out: ED50 (the source's name)
compounds and their reported EC50

Below: 4 compounds and their reported EC50.
Smiles Input	EC50
CCOc1cc(/C=C/C(C)=O)ccc1OC(=O)[C@@]1(C)CC[C@]2(C)CC[C@]3(C)C(=CC(=O)[C@@H]4[C@@]5(C)CC[C@H](O)C(C)(C)[C@@H]5CC[C@]43C)[C@@H]2C1	1700 nM
COc1ccc(/C=C/C(C)=O)cc1OC(=O)[C@@]1(C)CC[C@]2(C)CC[C@]3(C)C(=CC(=O)[C@@H]4[C@@]5(C)CC[C@H](O)C(C)(C)[C@@H]5CC[C@]43C)[C@@H]2C1	2800 nM
COc1ccc(/C=C/C(C)=O)c(OC(=O)[C@@]2(C)CC[C@]3(C)CC[C@]4(C)C(=CC(=O)[C@@H]5[C@@]6(C)CC[C@H](O)C(C)(C)[C@@H]6CC[C@]54C)[C@@H]3C2)c1	15500 nM
COc1cccc2c1C(=O)c1c(O)c3c(c(O)c1C2=O)C[C@@](O)(C(=O)CO)C[C@@H]3O[C@H]1C[C@H](N)[C@H](O)[C@H](C)O1	180 nM

Recorded EC50 (compound `COc1cccc(/C=C/C(=O)c2ccccc2)c1OC(=O)[C@@]1(C)CC[C@]2(C)CC[C@]3(C)C(=CC(=O)[C@@H]4[C@@]5(C)CC[C@H](O)C(C)(C)[C@@H]5CC[C@]43C)[C@@H]2C1` ): > 14000 nM

Looking up `CCOc1cccc(/C=C/C(C)=O)c1OC(=O)[C@@]1(C)CC[C@]2(C)CC[C@]3(C)C(=CC(=O)[C@@H]4[C@@]5(C)CC[C@H](O)C(C)(C)[C@@H]5CC[C@]43C)[C@@H]2C1` , I found its EC50 recorded as 3000 nM

###

// values below are reported pEC50
System: HCT-8
Test: Cytotoxicity against human HCT8 cells
Assay type: functional
Settings: read-out: ED50 (the source's name)
Please treat pEC50 as minus the base-10 logarithm of the molar concentration.

For orientation, consider the following solved cases.
Molecule	Result Type	Reading
CCOc1cc(/C=C/C(C)=O)ccc1OC(=O)[C@@]1(C)CC[C@]2(C)CC[C@]3(C)C(=CC(=O)[C@@H]4[C@@]5(C)CC[C@H](O)C(C)(C)[C@@H]5CC[C@]43C)[C@@H]2C1	pEC50	5.57
COc1ccc(/C=C/C(C)=O)cc1OC(=O)[C@@]1(C)CC[C@]2(C)CC[C@]3(C)C(=CC(=O)[C@@H]4[C@@]5(C)CC[C@H](O)C(C)(C)[C@@H]5CC[C@]43C)[C@@H]2C1	pEC50	5.70
COc1cccc2c1C(=O)c1c(O)c3c(c(O)c1C2=O)C[C@@](O)(C(=O)CO)C[C@@H]3O[C@H]1C[C@H](N)[C@H](O)[C@H](C)O1 [DOXORUBICIN]	pEC50	5.92
CC(=O)/C=C/c1cccc(F)c1OC(=O)[C@@]1(C)CC[C@]2(C)CC[C@]3(C)C(=CC(=O)[C@@H]4[C@@]5(C)CC[C@H](O)C(C)(C)[C@@H]5CC[C@]43C)[C@@H]2C1	pEC50	5.66
COc1cccc(/C=C/C(C)=O)c1OC(=O)[C@@]1(C)CC[C@]2(C)CC[C@]3(C)C(=CC(=O)[C@@H]4[C@@]5(C)CC[C@H](O)C(C)(C)[C@@H]5CC[C@]43C)[C@@H]2C1	pEC50	5.72

Per the record, `CCOc1cccc(/C=C/C(C)=O)c1OC(=O)[C@@]1(C)CC[C@]2(C)CC[C@]3(C)C(=CC(=O)[C@@H]4[C@@]5(C)CC[C@H](O)C(C)(C)[C@@H]5CC[C@]43C)[C@@H]2C1` has pEC50 of 5.31

Record `COc1cc(/C=C/C(C)=O)ccc1OC(=O)[C@@]1(C)CC[C@]2(C)CC[C@]3(C)C(=CC(=O)[C@@H]4[C@@]5(C)CC[C@H](O)C(C)(C)[C@@H]5CC[C@]43C)[C@@H]2C1` . Reported pEC50: 5.77

// pEC50 lookup, molecule = CC1(C)[C@@H](O)CC[C@]2(C)[C@H]3C(=O)C=C4[C@@H]5C[C@@](C)(C(=O)O)CC[C@]5(C)CC[C@@]4(C)[C@]3(C)CC[C@@H]12 [ENOXOLONE] , result: 4.71

Value of pEC50 reported for the molecule `COc1ccc(/C=C/C(C)=O)c(OC(=O)[C@@]2(C)CC[C@]3(C)CC[C@]4(C)C(=CC(=O)[C@@H]5[C@@]6(C)CC[C@H](O)C(C)(C)[C@@H]6CC[C@]54C)[C@@H]3C2)c1` is 5.59

The reported numbers originate from ChEMBL document CHEMBL1149639.
